Entry source: ChEMBL document CHEMBL1201862

- Tested on: IGROV-1
- Method Summary: NCI tumour cell line growth inhibition, 48 h
The source made the active and inactive calls. No stated cut-off is given here; in the data, active = GI50 up to about 1.1 µM and inactive = higher.
# GI50 annotations

[[record]]
chem_smiles = "N#Cc1ccc([N+](=O)[O-])cc1NC(N)=S"
system = "IGROV-1"
result = "> 100 µM (inactive)"

[[record]]
chem_smiles = "O=C(O)CN(c1ccccc1)S(=O)(=O)c1ccccc1[N+](=O)[O-]"
system = "IGROV-1"
result = "> 100 µM (inactive)"


Kindly review the next molecule as well.
[ask] # input molecule: O=C1c2ccccc2-c2cccc3ccc(Cc4ccc5ccccc5c4)c1c23 ; wanted: its GI50
[reply] > 100 µM (inactive)

###

- System: SW-620
- Method Summary: NCI tumour cell line growth inhibition, 48 h
Calls of active or inactive are those of the source. No stated cut-off is given here; in the data, active = GI50 up to about 1.1 µM and inactive = higher.
Result Type: GI50

The examples below pair each entry with its known result.
[[record]]
compound = "CC(C)(C)OC(=O)NCCC(=O)NC1(c2cc3ccccc3s2)CCCCC1"
system = "SW-620"
result_type = "GI50"
result = "22.6 µM (inactive)"

[[record]]
compound = "O=c1[nH]c(=O)n(COCc2ccccc2)c2ccc([N+](=O)[O-])cc12"
system = "SW-620"
result_type = "GI50"
result = "> 100 µM (inactive)"

[[record]]
compound = "Nc1ncn(C/C=C/c2ccccc2)c2ncnc1-2"
system = "SW-620"
result_type = "GI50"
result = "> 100 µM (inactive)"


[ask] Sample O=C(CC1(O)C(=O)Nc2c(Cl)cc(Cl)cc21)c1ccc(Br)cc1Br (configuration not stated) — what was its GI50?
[reply] 3.3 µM (inactive)

[ask] Look at this compound and give its reported GI50. CC(=O)OCC(OC(C)=O)C(OC(C)=O)C(/C=N\Nc1nc2ccccc2c(=O)[nH]1)OC(C)=O (configuration not stated)
[reply] > 100 µM (inactive)

[ask] Using the record for NNC(=O)N/N=C1\C(=O)N(c2nccs2)C(=O)C(=O)C1c1nc2ccccc2s1 (configuration not stated) , report its GI50.
[reply] > 100 µM (inactive)

###

- Test system: ACHN
- Method Summary: NCI tumour cell line growth inhibition, 48 h
Activity calls are given as the source filed them. No stated cut-off is given here; in the data, active = GI50 up to about 1.1 µM and inactive = higher.
GI50 for assorted compounds

Please review the entries below; each comes with its answer.
[[record]]
compound = "COc1ccc(N/N=C2\\CCOc3ccc(C)cc3C2=O)cc1"
result = "12.4 µM (inactive)"

[[record]]
compound = "CC(C)COC(=O)N1N=NC2C3CC(=O)C(O3)C21 (stereo not drawn)"
result = "> 100 µM (inactive)"


[ask] Look up GI50: COc1c(OC/C=C(\C)CCC=C(C)C)ccc2ccc(=O)oc12 [COLLININ]
[reply] > 100 µM (inactive)

###

- System: SNB-19
- Method Summary: NCI tumour cell line growth inhibition, 48 h
Calls of active or inactive are those of the source. No stated cut-off is given here; in the data, active = GI50 up to about 1.1 µM and inactive = higher.
Reported GI50 by item:

[[record]]
compound = "CC(=O)OC(C)(C)[C@H]1O[C@]23O[C@]1(C)C[C@@H](C)[C@@H]2[C@@]1(C)CC[C@@]24C[C@@]25CC[C@H](O[C@@H]2OC[C@@H](O)[C@H](O)[C@H]2O)C(C)(C)[C@@H]5CC[C@H]4[C@]1(C)[C@H]3O"
system = "SNB-19"
result_type = "GI50"
result = "6.27 µM (inactive)"

[[record]]
compound = "[C-]#[N+]C(C)(C)C[C@H]1CC(C)C2CCC(C)C3([N+]#[C-])CCC(=C)C1[C@H]23 (some centres undefined)"
system = "SNB-19"
result_type = "GI50"
result = "2.22 µM (inactive)"

[[record]]
compound = "CC1(C)CCSC(/C=C/c2ccccc2)=N1"
system = "SNB-19"
result_type = "GI50"
result = "20.1 µM (inactive)"


[ask] GI50 of CC(Oc1ccc(Cl)cc1Cl)C(=O)NN1C(=O)CC(=O)N(c2ccccc2)C1=S (centres undefined) on SNB-19?
[reply] 66.4 µM (inactive)
